# System: Bacillus subtilis DB104 (SP-AmyQ fusion secretion)
# Assay text: AmyQ secretion efficiency, weighted average sort bin (1 = best secretion, 10 = worst) (bin number (weighted average, 1-10)); higher = lower secretion efficiency
Each entry falls in a class defined on AmyQ secretion efficiency; the bands are zone 1 (below 3), zone 2 (3 to below 6), zone 3 (6 or more)

{"columns": ["Item sequence", "Experimental target", "Category"],
 "data": [
  ["MKLSVKIAGVLTVAAAAMTAKMYTTAKGN", "Bacillus subtilis DB104 (SP-AmyQ fusion secretion)", "zone 3"],
  ["MKKRKRRNFKRFIAAFLVLALMISLVPADVLAEED", "Bacillus subtilis DB104 (SP-AmyQ fusion secretion)", "zone 2"],
  ["MKKAWFLPLVCVLLISGWLAPAASASAQTT", "Bacillus subtilis DB104 (SP-AmyQ fusion secretion)", "zone 1"],
  ["MKKAAAVLLSLGLVFEDEDEAGHVAEAKTK", "Bacillus subtilis DB104 (SP-AmyQ fusion secretion)", "zone 2"],
  ["MKKKQVMTLNSSLALTAAAGLGLTALHSAPAAKAAPL", "Bacillus subtilis DB104 (SP-AmyQ fusion secretion)", "zone 2"],
  ["MKKIMSAFVGMVLLTIFCFSPQASAADD", "Bacillus subtilis DB104 (SP-AmyQ fusion secretion)", "zone 2"],
  ["MKKSQYFIVFICFFVLFSVHPIAGAAADS", "Bacillus subtilis DB104 (SP-AmyQ fusion secretion)", "zone 2"],
  ["MFNRLFRVCFLAALIMAFTLPNSIYAQKP", "Bacillus subtilis DB104 (SP-AmyQ fusion secretion)", "zone 1"],
  ["MKLSVKIAGVLTVAAAAMTAKMYATIKGN", "Bacillus subtilis DB104 (SP-AmyQ fusion secretion)", "zone 3"],
  ["MKRLFMKASLVLFAVVFVFAVKGAPTKAETH", "Bacillus subtilis DB104 (SP-AmyQ fusion secretion)", "zone 1"],
  ["MKLSVKIAGVLTVAAAAMTAKMYATYKGN", "Bacillus subtilis DB104 (SP-AmyQ fusion secretion)", "zone 3"],
  ["MRMLWRSRRKCKRRLTLAPCAQAAEP", "Bacillus subtilis DB104 (SP-AmyQ fusion secretion)", "zone 2"],
  ["MKKKRKKIAGVLTVAAAAMTAKMYATAKGN", "Bacillus subtilis DB104 (SP-AmyQ fusion secretion)", "zone 3"],
  ["MKLSVKIAGVLTVAAAAMVAFTIAFFFTAKMYATAKGN", "Bacillus subtilis DB104 (SP-AmyQ fusion secretion)", "zone 1"],
  ["MLCVMMLLFSAIASFPVSWQAKDQ", "Bacillus subtilis DB104 (SP-AmyQ fusion secretion)", "zone 3"],
  ["MNKPTKLFSTLALAAGMTRRKKRKAGTIHAQQP", "Bacillus subtilis DB104 (SP-AmyQ fusion secretion)", "zone 3"],
  ["MTKTIFAFLTGLMMFGTITAASASPD", "Bacillus subtilis DB104 (SP-AmyQ fusion secretion)", "zone 2"],
  ["MKKRKCLLFLTTIALILSLSTNAFAKNT", "Bacillus subtilis DB104 (SP-AmyQ fusion secretion)", "zone 1"],
  ["MKQGKFSVFLILLLMLAPKEKAEAASS", "Bacillus subtilis DB104 (SP-AmyQ fusion secretion)", "zone 1"],
  ["MKVLLSALLLLLFAFEPSASPKKL", "Bacillus subtilis DB104 (SP-AmyQ fusion secretion)", "zone 1"],
  ["MKIRKILLSSALSFGMLISAVPALTAGT", "Bacillus subtilis DB104 (SP-AmyQ fusion secretion)", "zone 2"],
  ["MSGTTSIILFSTLALAAGMTAAAAGGAGTIHAQQP", "Bacillus subtilis DB104 (SP-AmyQ fusion secretion)", "zone 2"],
  ["MKKTMTIGLLFMLCLAALFTIGFPAQQADAAEA", "Bacillus subtilis DB104 (SP-AmyQ fusion secretion)", "zone 1"],
  ["MKRLFMKASLVLFAVVFVFAVKGADAKAETH", "Bacillus subtilis DB104 (SP-AmyQ fusion secretion)", "zone 1"],
  ["MKKGIIRFLLVSFVLFFALSTGITGSQAAPA", "Bacillus subtilis DB104 (SP-AmyQ fusion secretion)", "zone 2"],
  ["MKKIWIGMLAAAVLLLITISVTAAMVPKVSLADAA", "Bacillus subtilis DB104 (SP-AmyQ fusion secretion)", "zone 2"],
  ["MKKKIRRRKAVSAVVGSSMAAAPAEAKTI", "Bacillus subtilis DB104 (SP-AmyQ fusion secretion)", "zone 2"],
  ["MKKWMITIAMSYTSTKRYFVFISPLKSHKT", "Bacillus subtilis DB104 (SP-AmyQ fusion secretion)", "zone 3"],
  ["MNFMFTVVSALSISALALSVSGVASAHEI", "Bacillus subtilis DB104 (SP-AmyQ fusion secretion)", "zone 2"],
  ["MKWMCSICCAAVLLAGGAVQAEAV", "Bacillus subtilis DB104 (SP-AmyQ fusion secretion)", "zone 1"],
  ["MKRLLVSLRVWMVFLMNWVTPDRKTPAAAVY", "Bacillus subtilis DB104 (SP-AmyQ fusion secretion)", "zone 3"],
  ["MKKVLMAFIICLSLILSVLAAPPSGHKAESV", "Bacillus subtilis DB104 (SP-AmyQ fusion secretion)", "zone 3"],
  ["MKSKGSIMACLILFSFTITTFINTETSSVFTPISAFSN", "Bacillus subtilis DB104 (SP-AmyQ fusion secretion)", "zone 3"],
  ["MKWMCSICCAAVLLAGIAIAQAEAV", "Bacillus subtilis DB104 (SP-AmyQ fusion secretion)", "zone 3"],
  ["MKLAKRVSALTPSTTLAITAKEKEL", "Bacillus subtilis DB104 (SP-AmyQ fusion secretion)", "zone 3"],
  ["MRKYTVIASILLSFLSVLASTVFVSKAFPV", "Bacillus subtilis DB104 (SP-AmyQ fusion secretion)", "zone 3"],
  ["MKVLLSALLLLLFAFEPSLSGKKL", "Bacillus subtilis DB104 (SP-AmyQ fusion secretion)", "zone 3"],
  ["MKKRITYSLLALLAVVAFAFTDSSAAKAAEA", "Bacillus subtilis DB104 (SP-AmyQ fusion secretion)", "zone 1"],
  ["MPYLKRVLLLLVTGLFMSLFAVTATASPQTG", "Bacillus subtilis DB104 (SP-AmyQ fusion secretion)", "zone 1"],
  ["MKKKKRYSQRFLVALTMCGGLFVTPAKAVKT", "Bacillus subtilis DB104 (SP-AmyQ fusion secretion)", "zone 3"],
  ["MKKLLAAGIIGLLTVSIASPSFAASC", "Bacillus subtilis DB104 (SP-AmyQ fusion secretion)", "zone 1"],
  ["MKKKQVMLALTAAAGLGLTALHSAPAAKPAPL", "Bacillus subtilis DB104 (SP-AmyQ fusion secretion)", "zone 2"],
  ["MNFKKTVVSALSISALALSVSGVASAHTI", "Bacillus subtilis DB104 (SP-AmyQ fusion secretion)", "zone 2"],
  ["MRNLTKTSLLLAGLCQMVFVTHASAEES", "Bacillus subtilis DB104 (SP-AmyQ fusion secretion)", "zone 2"],
  ["MTSAFILSAAAAVGLFTFGGVQQASAKEL", "Bacillus subtilis DB104 (SP-AmyQ fusion secretion)", "zone 1"],
  ["MKKKRLLAGALTATVLFGTCAVDVPGIISPKTAEAASQ", "Bacillus subtilis DB104 (SP-AmyQ fusion secretion)", "zone 1"],
  ["MYGKIALTLCPAIVGSLLFFTAPASAHVS", "Bacillus subtilis DB104 (SP-AmyQ fusion secretion)", "zone 1"],
  ["MKWMCSICCAAVLLAGGAPTFAQAEAV", "Bacillus subtilis DB104 (SP-AmyQ fusion secretion)", "zone 2"],
  ["MRKTIFAFLTGLMMFEDDEEDASASPD", "Bacillus subtilis DB104 (SP-AmyQ fusion secretion)", "zone 2"],
  ["MAIIIAIIAAVIVIAALITFNVWNASPG", "Bacillus subtilis DB104 (SP-AmyQ fusion secretion)", "zone 3"],
  ["MGLGKKLSVAVAASFMSLSISLKRRRKRVQAAEG", "Bacillus subtilis DB104 (SP-AmyQ fusion secretion)", "zone 3"],
  ["MLKKIALTLCPAIVGSLLFFTKPQASAHVS", "Bacillus subtilis DB104 (SP-AmyQ fusion secretion)", "zone 2"]
]}
